Source of measurements: patent US20240301071A1

Biological target: T1, human SIRPA v1 on BWZ cells (BWZ-huSIRPA) (human, UniProt P78324 31-504)
T1 construct: also called BWZ cells overexpressing human SIRPA; BWZ-huSIRPA v1 cells
T1 sequence (P78324 31-504): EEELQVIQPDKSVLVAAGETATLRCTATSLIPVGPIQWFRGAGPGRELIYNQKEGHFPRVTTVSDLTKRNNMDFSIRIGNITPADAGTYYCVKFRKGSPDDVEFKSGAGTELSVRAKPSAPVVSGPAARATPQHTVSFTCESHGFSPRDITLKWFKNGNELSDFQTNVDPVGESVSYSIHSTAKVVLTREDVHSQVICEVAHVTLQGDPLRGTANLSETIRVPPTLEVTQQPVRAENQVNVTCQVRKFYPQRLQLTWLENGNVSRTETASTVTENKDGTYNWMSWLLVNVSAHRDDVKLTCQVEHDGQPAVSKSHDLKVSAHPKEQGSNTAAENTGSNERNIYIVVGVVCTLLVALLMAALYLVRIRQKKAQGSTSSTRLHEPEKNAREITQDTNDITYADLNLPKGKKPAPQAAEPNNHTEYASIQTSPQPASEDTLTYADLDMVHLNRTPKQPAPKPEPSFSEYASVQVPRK
Experiment: flow cytometry competition on BWZ-huSIRPA v1 cells, competitor: fluorophore-labelled reference m3F9
assay endpoint: IC50 (nM)
// return numeric value only (unit: nM, not printed)

Look over these answered cases.
INSERT INTO results (binder, assay_endpoint, unit_abbreviation, reported) VALUES
  ('mouse anti-SIRPA antibody m3F9 (antibody, mouse IgG1, V domains shown, hybridoma-derived murine IgG1; also called Parental m3F9 IgG1; 3F9 mIgG1) VH: EVKLVESGGGLVKPGGSLKLSCAASGFTFSSYAMSWVRQTPEKRLEWVATISDYGGSYTYYPDSVKGRFTISRDNAKYTLYLQMSSLRSEDTALYYCARPPYDDYYGGFAYWGQGTLVTVSA VL: DIVLTQSPASLAVSLGQRATISCRASKSVSSSGYSYMHWYQQKPGQPPKLLIYLASNLESGVPARFSGSGSGTDFTLNIHPVEEEDAATYYCQHNRELPCTFGGGTKLEIK', 'IC50', 'nM', 11.5),
  ('mAb 14.70.1 (antibody, human IgG4, V domains shown, also called h3F9 H1/L1; h3F9 IgG4) VH: EVQLLESGGGLVQPGGSLRLSCAASGFTFSSYAMSWVRQAPGKGLEWVSTISDYGGSYTYYADSVKGRFTISRDNSKNTLYLQMNSLRAEDTAVYYCAKPPYDDYYGGFAYWGQGTLVTVSS VL: DIQMTQSPSSLSASVGDRVTITCRASKSVSSSGYSYMHWYQQKPGKAPKLLIYLASNLESGVPSRFSGSGSGTDFTLTISSLQPEDFATYYCQHNRELPCTFGQGTKLEIK', 'IC50', 'nM', 3.3),
  ('mAb 14.70.4 (antibody, human IgG4, V domains shown, also called h3F9 H2/L1; h3F9 IgG4) VH: EVQLLESGGGLVQPGGSLRLSCAASGFTFSSYAMSWVRQAPGKGLEWVATISDYGGSYTYYADSVKGRFTISRDNSKNTLYLQMNSLRAEDTAVYYCARPPYDDYYGGFAYWGQGTLVTVSS VL: DIQMTQSPSSLSASVGDRVTITCRASKSVSSSGYSYMHWYQQKPGKAPKLLIYLASNLESGVPSRFSGSGSGTDFTLTISSLQPEDFATYYCQHNRELPCTFGQGTKLEIK', 'IC50', 'nM', 4.61);

Now for the binder whose IC50 we want.
get_value(item= mAb 14.70.2 (antibody, human IgG4, V domains shown, also called h3F9 H1/L2; h3F9 IgG4) VH: EVQLLESGGGLVQPGGSLRLSCAASGFTFSSYAMSWVRQAPGKGLEWVSTISDYGGSYTYYADSVKGRFTISRDNSKNTLYLQMNSLRAEDTAVYYCAKPPYDDYYGGFAYWGQGTLVTVSS VL: DIQLTQSPSSLSASVGDRVTITCRASKSVSSSGYSYMHWYQQKPGKAPKLLIYLASNLESGVPSRFSGSGSGTDFTLTISSVQPEDFATYYCQHNRELPCTFGQGTKLEIK , readout=IC50) returns 2.19
